ASSAY INFO: in vivo
REPORTED CONDITIONS: NMRI, mouse, bone, total radioactivity, activity uptake in bone, NMRI mice, 30 min pi, 40 pmol, blocked: co-injected with 5 nmol NOTA-PEG2-RM26, mean ± SD, n = 3
MEASUREMENT NAME: tissue uptake at 0.5 h (%ID/g)
Supply the numeric figure in %ID/g, leaving out any unit text.

(Q) Any idea what its tissue uptake at 0.5 h is? The compound is CC1=NNC(c2ccc(CNC(=O)c3ccc(F)nc3)cc2)=C2CCC[C@H](OC(=O)NCCOCCOCCC(=O)N[C@H](Cc3ccccc3)C(=O)N[C@@H](CCC(N)=O)C(=O)N[C@@H](Cc3c[nH]c4ccccc34)C(=O)N[C@@H](C)C(=O)N[C@H](C(=O)NCC(=O)N[C@@H](Cc3c[nH]cn3)C(=O)N[C@@H](CC(C)C)[C@@H](O)CC(=O)N[C@@H](CC(C)C)C(N)=O)C(C)C)CCC12 (stereo partly shown)
(A) 0.7

* * *

ASSAY INFO: in vivo
REPORTED CONDITIONS: NMRI, mouse, rest of the carcass, 40 pmol, total radioactivity
MEASUREMENT NAME: tissue uptake dose at 0.5 h (%ID)
Supply the numeric figure in %ID, leaving out any unit text.

(Q) Any idea what its tissue uptake dose at 0.5 h is? The compound is CC1=NNC(c2ccc(CNC(=O)c3ccc(F)nc3)cc2)=C2CCC[C@H](OC(=O)NCCOCCOCCC(=O)N[C@H](Cc3ccccc3)C(=O)N[C@@H](CCC(N)=O)C(=O)N[C@@H](Cc3c[nH]c4ccccc34)C(=O)N[C@@H](C)C(=O)N[C@H](C(=O)NCC(=O)N[C@@H](Cc3c[nH]cn3)C(=O)N[C@@H](CC(C)C)[C@@H](O)CC(=O)N[C@@H](CC(C)C)C(N)=O)C(C)C)CCC12 (stereo partly shown) [8a]
(A) 15

* * *

ASSAY INFO: in vivo
REPORTED CONDITIONS: Balb/c nu/nu, mouse, blood, 48 pmol, total radioactivity
MEASUREMENT NAME: tissue uptake at 2 h
Note to self: number, then unit, no commentary.

(Q) Any idea what its tissue uptake at 2 h is? The molecule is CC1=NNC(c2ccc(CNC(=O)c3ccc(F)nc3)cc2)=C2CCC[C@H](OC(=O)NCCOCCOCCC(=O)N[C@H](Cc3ccccc3)C(=O)N[C@@H](CCC(N)=O)C(=O)N[C@@H](Cc3c[nH]c4ccccc34)C(=O)N[C@@H](C)C(=O)N[C@H](C(=O)NCC(=O)N[C@@H](Cc3c[nH]cn3)C(=O)N[C@@H](CC(C)C)[C@@H](O)CC(=O)N[C@@H](CC(C)C)C(N)=O)C(C)C)CCC12 (stereo partly shown)
(A) 1.8 %ID/g

* * *

ASSAY INFO: in vivo
REPORTED CONDITIONS: NMRI, mouse, blood, 40 pmol, total radioactivity, activity uptake in blood, NMRI mice, 30 min pi, 40 pmol (30 kBq), non-blocked, mean ± SD, n = 3–4
MEASUREMENT NAME: tissue uptake at 0.5 h (%ID/g)
Supply the numeric figure in %ID/g, leaving out any unit text.

(Q) Any idea what its tissue uptake at 0.5 h is? The molecule is CC1=NNC(c2ccc(CNC(=O)c3ccc(F)nc3)cc2)=C2CCC[C@H](OC(=O)NCCOCCOCCC(=O)N[C@H](Cc3ccccc3)C(=O)N[C@@H](CCC(N)=O)C(=O)N[C@@H](Cc3c[nH]c4ccccc34)C(=O)N[C@@H](C)C(=O)N[C@H](C(=O)NCC(=O)N[C@@H](Cc3c[nH]cn3)C(=O)N[C@@H](CC(C)C)[C@@H](O)CC(=O)N[C@@H](CC(C)C)C(N)=O)C(C)C)CCC12 (stereo partly shown)
(A) 5

* * *

ASSAY INFO: in vivo
REPORTED CONDITIONS: Balb/c nu/nu, mouse, tumour / spleen, 48 pmol, total radioactivity
MEASUREMENT NAME: tissue to tissue ratio at 1 h
Output: the number by itself.

(Q) Any idea what its tissue to tissue ratio at 1 h is? The molecule is CC1=NNC(c2ccc(CNC(=O)c3ccc(F)nc3)cc2)=C2CCC[C@H](OC(=O)NCCOCCOCCC(=O)N[C@H](Cc3ccccc3)C(=O)N[C@@H](CCC(N)=O)C(=O)N[C@@H](Cc3c[nH]c4ccccc34)C(=O)N[C@@H](C)C(=O)N[C@H](C(=O)NCC(=O)N[C@@H](Cc3c[nH]cn3)C(=O)N[C@@H](CC(C)C)[C@@H](O)CC(=O)N[C@@H](CC(C)C)C(N)=O)C(C)C)CCC12 (stereo partly shown) [8a]
(A) 2.6

* * *

MEASUREMENT NAME: logP
Output: the number by itself.

(Q) Any idea what its logP is? The molecule is CC1=NNC(c2ccc(CNC(=O)c3ccc(F)nc3)cc2)=C2CCC[C@H](OC(=O)NCCOCCOCCC(=O)N[C@H](Cc3ccccc3)C(=O)N[C@@H](CCC(N)=O)C(=O)N[C@@H](Cc3c[nH]c4ccccc34)C(=O)N[C@@H](C)C(=O)N[C@H](C(=O)NCC(=O)N[C@@H](Cc3c[nH]cn3)C(=O)N[C@@H](CC(C)C)[C@@H](O)CC(=O)N[C@@H](CC(C)C)C(N)=O)C(C)C)CCC12 (stereo partly shown)
(A) 1.6

* * *

ASSAY INFO: in vivo
REPORTED CONDITIONS: NMRI, mouse, liver, total radioactivity, activity uptake in liver, NMRI mice, 30 min pi, 40 pmol, blocked: co-injected with 5 nmol NOTA-PEG2-RM26, mean ± SD, n = 3
MEASUREMENT NAME: tissue uptake at 0.5 h (%ID/g)
Supply the numeric figure in %ID/g, leaving out any unit text.

(Q) Any idea what its tissue uptake at 0.5 h is? The compound is CC1=NNC(c2ccc(CNC(=O)c3ccc(F)nc3)cc2)=C2CCC[C@H](OC(=O)NCCOCCOCCC(=O)N[C@H](Cc3ccccc3)C(=O)N[C@@H](CCC(N)=O)C(=O)N[C@@H](Cc3c[nH]c4ccccc34)C(=O)N[C@@H](C)C(=O)N[C@H](C(=O)NCC(=O)N[C@@H](Cc3c[nH]cn3)C(=O)N[C@@H](CC(C)C)[C@@H](O)CC(=O)N[C@@H](CC(C)C)C(N)=O)C(C)C)CCC12 (stereo partly shown) [8a]
(A) 12

* * *

ASSAY INFO: in vivo
REPORTED CONDITIONS: Balb/c nu/nu, mouse, pancreas, 48 pmol, total radioactivity
MEASUREMENT NAME: tissue uptake at 1 h (%ID/g)
Supply the numeric figure in %ID/g, leaving out any unit text.

(Q) Any idea what its tissue uptake at 1 h is? The compound is CC1=NNC(c2ccc(CNC(=O)c3ccc(F)nc3)cc2)=C2CCC[C@H](OC(=O)NCCOCCOCCC(=O)N[C@H](Cc3ccccc3)C(=O)N[C@@H](CCC(N)=O)C(=O)N[C@@H](Cc3c[nH]c4ccccc34)C(=O)N[C@@H](C)C(=O)N[C@H](C(=O)NCC(=O)N[C@@H](Cc3c[nH]cn3)C(=O)N[C@@H](CC(C)C)[C@@H](O)CC(=O)N[C@@H](CC(C)C)C(N)=O)C(C)C)CCC12 (stereo partly shown)
(A) 16

* * *

ASSAY INFO: in vivo
REPORTED CONDITIONS: Balb/c nu/nu, mouse, tumour / small intestine, 48 pmol, total radioactivity
MEASUREMENT NAME: tissue to tissue ratio at 2 h
Output: the number by itself.

(Q) Any idea what its tissue to tissue ratio at 2 h is? The compound is CC1=NNC(c2ccc(CNC(=O)c3ccc(F)nc3)cc2)=C2CCC[C@H](OC(=O)NCCOCCOCCC(=O)N[C@H](Cc3ccccc3)C(=O)N[C@@H](CCC(N)=O)C(=O)N[C@@H](Cc3c[nH]c4ccccc34)C(=O)N[C@@H](C)C(=O)N[C@H](C(=O)NCC(=O)N[C@@H](Cc3c[nH]cn3)C(=O)N[C@@H](CC(C)C)[C@@H](O)CC(=O)N[C@@H](CC(C)C)C(N)=O)C(C)C)CCC12 (stereo partly shown)
(A) 0.7

* * *

ASSAY INFO: in vivo
REPORTED CONDITIONS: Balb/c nu/nu, mouse, lungs, 48 pmol, total radioactivity
MEASUREMENT NAME: tissue uptake at 2 h (%ID/g)
Supply the numeric figure in %ID/g, leaving out any unit text.

(Q) Any idea what its tissue uptake at 2 h is? The compound is CC1=NNC(c2ccc(CNC(=O)c3ccc(F)nc3)cc2)=C2CCC[C@H](OC(=O)NCCOCCOCCC(=O)N[C@H](Cc3ccccc3)C(=O)N[C@@H](CCC(N)=O)C(=O)N[C@@H](Cc3c[nH]c4ccccc34)C(=O)N[C@@H](C)C(=O)N[C@H](C(=O)NCC(=O)N[C@@H](Cc3c[nH]cn3)C(=O)N[C@@H](CC(C)C)[C@@H](O)CC(=O)N[C@@H](CC(C)C)C(N)=O)C(C)C)CCC12 (stereo partly shown) [8a]
(A) 1.5
